Tested on: XBP1(u)-luciferase splicing reporter in HepG2 hepatoma cells
experiment_description: HepG2 XBP1 reporter assay (XBP1(u)-Luc)
Assay type: cell-based
condition: Homo sapiens, 6 hours after compound addition, Table 4
pIC50: −log10 of the molar value.
property_name: pIC50

- compound: "Cc1cc(N)nc(N2CCCOCC2c2cc3c(cc2Cl)CCN3C)c1 (stereo not shown)"
  tested_on: "XBP1(u)-luciferase splicing reporter in HepG2 hepatoma cells"
  pIC50: "> 6.22"
- compound: "Cc1cc(N2CCCOCC2c2ccc(OCC(N)=O)cc2Cl)nc(N)n1 (stereo not shown)"
  tested_on: "XBP1(u)-luciferase splicing reporter in HepG2 hepatoma cells"
  pIC50: "> 6.22"
- compound: "Cc1cc(N2CCCOC[C@H]2c2cc(C)c(N)cc2Cl)nc(N)n1"
  tested_on: "XBP1(u)-luciferase splicing reporter in HepG2 hepatoma cells"
  pIC50: "≤ 5.30"
- compound: "Cc1cc(N2CCCOCC2c2cc3c(cc2Cl)CCCN3C)nc(N)n1 (stereo not shown)"
  tested_on: "XBP1(u)-luciferase splicing reporter in HepG2 hepatoma cells"
  pIC50: "≤ 5.30"
- compound: "COc1cc(Cl)c(C2COCCCN2c2cc(C)nc(N)n2)cc1OC(C)C (stereo not shown)"
  tested_on: "XBP1(u)-luciferase splicing reporter in HepG2 hepatoma cells"
  pIC50: "5.70 to 6.22"

// sample `CCOC(=O)[C@H](C)Oc1cc(Cl)c([C@@H]2COCCCN2c2cc(C)nc(N)n2)cc1OC` , its pIC50 was 5.30 to 5.70

// sample Cc1cc(N2CCCOCC2c2cc3c(cc2Cl)NCCC3)nc(N)n1 (stereo not shown) , its pIC50 was > 6.22

// sample `Cc1cc(N2CCCOC[C@@H]2c2cc(F)c(N3CCC(C)(O)CC3)cc2Cl)nc(N)n1` , its pIC50 was 5.70 to 6.22

// sample Cc1cc(N2CCCOCC2c2cc(CS(C)(=O)=O)ccc2Cl)nc(N)n1 (stereo in doubt) [C-52] , its pIC50 was 5.70 to 6.22

// sample COc1cc(C2COCCCN2c2nc(C)nc(N)n2)c(Cl)cc1N1CCCCC1 (stereo not shown) , its pIC50 was 5.70 to 6.22
